- protocol_text: Drug level in tumor of human BT474 cells xenografted in ICR-SCID mouse at 100 mg/kg, ip administered after 3 weeks tumor implantation measured after 12 hrs
- Type: ADME, organism-based, Neoplasm, BT-474
- Set-up: dose 100 mg/kg, route intraperitoneal
- condition_description: tumor (human BT474 xenograft), read-out: Drug uptake
reported_metric: concentration at 12 h (ng/g)

- smiles_data: "O=C1OCC/C=C/CC/C=C/C(=N/OCC(=O)N2CCCCC2)Cc2c(Cl)c(O)cc(O)c21"
  quantitative_result: 5250

Data provenance is ChEMBL document CHEMBL1153018.
